# test.system: Toll-like receptor 7 (Homo sapiens)
# Sequence (Q9NYK1 whole entry): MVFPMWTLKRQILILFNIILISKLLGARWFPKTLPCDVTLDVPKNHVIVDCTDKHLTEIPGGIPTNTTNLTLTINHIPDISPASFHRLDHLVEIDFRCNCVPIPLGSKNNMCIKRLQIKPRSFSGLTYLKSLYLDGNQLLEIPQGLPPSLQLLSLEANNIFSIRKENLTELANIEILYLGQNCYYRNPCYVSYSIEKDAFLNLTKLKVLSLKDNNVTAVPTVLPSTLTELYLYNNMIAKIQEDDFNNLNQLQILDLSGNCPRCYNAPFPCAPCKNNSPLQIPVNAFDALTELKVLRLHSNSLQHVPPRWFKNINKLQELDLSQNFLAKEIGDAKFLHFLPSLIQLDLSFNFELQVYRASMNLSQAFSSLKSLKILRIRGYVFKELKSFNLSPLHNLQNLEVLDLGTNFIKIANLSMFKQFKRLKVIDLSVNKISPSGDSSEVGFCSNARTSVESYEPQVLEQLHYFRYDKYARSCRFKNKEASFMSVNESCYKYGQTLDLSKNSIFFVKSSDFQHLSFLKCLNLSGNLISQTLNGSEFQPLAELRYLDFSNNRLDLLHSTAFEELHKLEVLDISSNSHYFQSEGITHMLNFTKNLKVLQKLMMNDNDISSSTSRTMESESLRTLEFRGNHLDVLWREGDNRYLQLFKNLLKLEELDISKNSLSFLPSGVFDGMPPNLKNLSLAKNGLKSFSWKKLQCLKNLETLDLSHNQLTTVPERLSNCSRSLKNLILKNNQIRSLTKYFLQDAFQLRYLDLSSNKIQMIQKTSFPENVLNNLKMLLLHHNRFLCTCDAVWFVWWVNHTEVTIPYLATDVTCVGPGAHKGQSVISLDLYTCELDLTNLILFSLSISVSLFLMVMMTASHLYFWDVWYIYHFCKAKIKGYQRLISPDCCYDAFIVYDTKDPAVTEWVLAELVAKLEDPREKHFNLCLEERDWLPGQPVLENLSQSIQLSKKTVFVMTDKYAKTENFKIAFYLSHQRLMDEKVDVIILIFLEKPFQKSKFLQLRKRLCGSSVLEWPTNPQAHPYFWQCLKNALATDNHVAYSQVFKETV
# protocol.description: HEK-Blue™ TLR7 cells were added to each well of a 384-well tissue-culture plate (15,000 cells per well) and incubated 16-18 h at 37° C., 5% CO2. Compounds (100 nl) were dispensed into wells containing the HEK-Blue™ TLR cells and the treated cells were incubated at 37° C., 5% CO2. After 18 h treatment ten microliters of freshly-prepared Quanti-Blue™ reagent (Invivogen) was added to each well, incubated for 30 min (37° C., 5% CO2) and SEAP levels measured using an Envision plate reader (OD=620 nm).
measure.name: log10(EC50) (log10 of the value in nM)
Recall that a logarithmic scale is used here: each number is log10 of EC50 in nM.

Take a look at these entries with their results.
smiles_str=CCCCOc1nc(N)c2nc(O)n(Cc3ccc(CN4CCC(CN)CC4)nc3)c2n1 test_system="Toll-like receptor 7 (Homo sapiens)" value_measured=0.69
smiles_str=CCCCOc1nc(N)c2nc(O)n(Cc3ccc(CNC4CCCC4)nc3)c2n1 test_system="Toll-like receptor 7 (Homo sapiens)" value_measured=0.46
smiles_str=CCCCOc1nc(N)c2nc(O)n(Cc3ccc(CNCc4ccccc4)nc3)c2n1 test_system="Toll-like receptor 7 (Homo sapiens)" value_measured=2.04
smiles_str=CCCCCCNCc1ccc(Cn2c(O)nc3c(N)nc(OCCCC)nc32)cn1 test_system="Toll-like receptor 7 (Homo sapiens)" value_measured=1.04
smiles_str=CCCCOc1nc(N)c2nc(O)n(Cc3ccc(CN4CCC(N)CC4)nc3)c2n1 test_system="Toll-like receptor 7 (Homo sapiens)" value_measured=0.49

Please turn your attention to the following entry.
Data request: Write down log10(EC50) measured for item CCCCOc1nc(N)c2nc(O)n(Cc3ccc(CNCc4ccccc4)cn3)c2n1
Data returned: 1.34
